# procedure-details: NCI Yeast Anticancer Drug Screen. Data for the rad50 strain (AID 155);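 note: 0% = growth of vehicle-only cultures of the same strain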
# study-conditions: S. cerevisiae rad50 strain growth inhibition; at 50.0 µM (retest, dose inferred, filed as 5.0); hits give high values
This is part of a sample that, as a whole, favours compounds with a hit. Of some 79,000 tested, about 15% had one in any assay.
Please provide measured growth inhibition for the entries that follow.
Numbers only, in %.

COc1ccccc1C(=O)OCC1CCCN2CCCCC12 (stereo not drawn)    99
Cc1cc2c(cc1C(=O)CCC(=O)O)CC1(C2)Cc2cc(C)c(C(=O)CCC(=O)O)cc2C1    36
Cc1c(Cl)ccc2c1S(=O)(=O)c1cccc(Cl)c1-2    100
OC(COc1cccc2ccccc12)CN1CCOCC1 (stereo not drawn)    78

Give growth inhibition for each listed item.
1. O=C(O)CNc1ccc(Cl)c(Cl)c1
2. Cn1c(N)nc(-c2ccc(Cl)cc2)c1SSc1c(-c2ccc(Cl)cc2)nc(N)n1C
3. Fc1ccc(NC(=S)SCc2ccc(Cl)c(Cl)c2)cc1F
4. Cc1ccc(C2C(Cl)C(=O)N2n2cnc3ccccc3c2=O)cc1 (stereo not drawn)
5. CCCCCCCCCCC(=O)Cl
6. CCCCCCCCCCCCCCCCCCN(C)CC(COP(=O)([O-])OCC[N+](C)(C)C)OC (stereo not drawn)
7. COC(=O)C1=C(C)NC(C)=C(C(=O)OCCCN2CCC(c3ccccc3)(c3ccccc3)CC2)C1c1cccc([N+](=O)[O-])c1 (stereo not drawn)

Response:
18
15
98
-4
98
98
99

Give growth inhibition for each listed item.
1. OC1CSCCCSCCSCCCSC1
2. CCCCCCCCCCCCCC[N+](C)(CC(=O)[O-])Cc1ccccc1 (stereo not drawn)

Response:
-14
99

Each molecule below has a recorded value; state its growth inhibition.
1. CCC(C(=O)O)C1=C(c2ccccc2)CCc2ccccc21 (stereo not drawn)
2. Brc1ccc(-c2cc3c(cc2C2SCCS2)OCO3)cc1
3. O=C(CCCN1CCC(O)(c2ccc(Cl)cc2)CC1)c1ccc(F)cc1
4. COc1cc2c(c(OC)c1OC)-c1c(cc3c(c1OC)OCO3)CC(C)C(C)(O)C2OC(=O)c1ccccc1 (stereo not drawn)
5. O=C1C(=O)c2ccccc2C=C1[N+](=O)[O-]

Response:
[98, 48, 99, 40, 30]
